Form field: TGI (one value per entry).
# System: TK-10 renal
# Assay Overview: NCI tumour cell line growth inhibition, 48 h
Answer with a number only, understood to be in µM.

Below, 3 molecules whose answers are already recorded.
[
  {
    "Molecule": "Cc1ccccc1C(C(=O)NC1CCCCC1)N(C(=O)CNc1ccc(C#N)cc1)c1cccc(F)c1 (stereo not drawn)",
    "Units Symbol": "µM",
    "TGI": 71.7
  },
  {
    "Molecule": "CN(/N=C\\c1ccnc2ccccc12)c1ccccc1",
    "Units Symbol": "µM",
    "TGI": 98.7
  },
  {
    "Molecule": "CCC12C=CCN3CCC4(c5cc(C(c6ccc(OC)cc6)C6Cc7ccccc7N6)c(OC)cc5N(C)C4C(O)(C(=O)OC)C1O)C32 (stereo not drawn)",
    "Units Symbol": "µM",
    "TGI": 66.3
  }
]

Let's switch to this molecule now.
Query: State its TGI for this molecule: C=CC(=O)Nc1cccc(Oc2nc(Nc3ccc(N4CCN(C)CC4)cc3OC)ncc2Cl)c1
Response: 1.86

###

# Tested on: NCI-H522 lung
# Assay Overview: NCI tumour cell line growth inhibition, 48 h
Form field: TGI (one value per entry).

[
  {
    "Compound": "C=CCCCC1(C)CCNC1=S (stereo not drawn)",
    "TGI": "> 100 µM"
  },
  {
    "Compound": "C/C=C\\C(CC(=O)OC)CC(=O)N(CCC1CN(S(=O)(=O)C(F)(F)F)c2ccccc21)Cc1ccc(OC)cc1OC (stereo not drawn)",
    "TGI": "> 100 µM"
  },
  {
    "Compound": "COc1cccc(NC(=O)CC(=O)NN2C(=O)/C(=C/c3ccc(N(CCC#N)CCC#N)cc3)N=C2c2cc([N+](=O)[O-])ccc2Cl)c1",
    "TGI": "> 100 µM"
  }
]

Query: State its TGI for this compound: CC(=O)OCC1OC(n2ncc(=O)[nH]c2=O)C(OC(C)=O)C1OC(C)=O (stereo not drawn)
Response: > 100 µM

Query: State its TGI for this compound: CC(C)C(Sc1nc(-c2ccccc2)c(-c2ccccc2)[nH]1)c1n[nH]c(=S)n1-c1ccccc1 (stereo not drawn)
Response: 43.6 µM

Query: State its TGI for this compound: Cc1cc2c(cc1Cl)SC(c1ccccc1O)NS2(=O)=O (stereo not drawn)
Response: > 100 µM

Query: State its TGI for this compound: C=C1CC2(CCS(=O)(=O)c3ccccc32)OC1=O (stereo not drawn)
Response: 11.4 µM

Query: State its TGI for this compound: COc1ccccc1NC(=O)CC(=O)N1N=C(c2ccccc2)C(N=Nc2ccc(Cl)cc2)C1=O (stereo not drawn)
Response: > 100 µM

###

# Tested on: HCT-116 colon
# Assay Overview: NCI tumour cell line growth inhibition, 48 h; in the data active = GI50 below about 0.43 µM; inactive = the rest
Respond using exactly one of the listed classes: TRUE = active, FALSE = inactive

Check out these entries, answers already filled in.
[
  {
    "Compound": "CCNCCNc1cc(-c2ccc(C(F)(F)F)cc2)c(C#N)c2nc3cc(Cl)c(Cl)cc3n12",
    "Assigned Class": "TRUE"
  },
  {
    "Compound": "N#CC1=C(N)Oc2c(sc3c(Br)cccc23)C1c1ccc(Cl)cc1 (centres undefined)",
    "Assigned Class": "FALSE"
  },
  {
    "Compound": "Cc1ccccc1C(C(=O)NC1CCCCC1)N(C(=O)CNc1ncccc1F)c1cccc(F)c1 (centres undefined)",
    "Assigned Class": "FALSE"
  }
]

Switching to the query record.
Query: Just curious, what result did COc1ccc(Cn2cc3c(c2-c2cc(OC)c(OC)c(OC)c2)CCc2c(CO)noc2-3)cc1 get here?
Response: TRUE

###

# Test system: ACHN renal
# Assay Overview: NCI tumour cell line growth inhibition, 48 h
Measured Property: TGI

Below, 5 molecules whose answers are already recorded.
[
  {
    "Molecule": "COc1ccc2c(c1)C(c1cc(OC)c3c(c1)OCO3)C1=C(COC1=O)N2 (stereo unspecified)",
    "TGI": "> 100 µM"
  },
  {
    "Molecule": "COC(=O)c1ccc2c(c1)sc1nc(-c3ccc(OC)cc3)cn12",
    "TGI": "> 100 µM"
  },
  {
    "Molecule": "Cc1cc2c(cc1Cl)SC(NNC1=NCCN1)=NS2(=O)=O",
    "TGI": "> 10 µM"
  },
  {
    "Molecule": "COc1cc(CNc2cnc3ccc(N)cc3n2)cc(OC)c1OC",
    "TGI": "> 100 µM"
  },
  {
    "Molecule": "C=CCCCC1(C)CCNC1=S (stereo unspecified)",
    "TGI": "> 100 µM"
  }
]

Let's switch to this molecule now.
Query: State its TGI for this molecule: COC(=O)[C@@H](C)C[C@H](Cc1ccccc1)NC(=O)c1csc([C@@H](C[C@H](C(C)C)N(C)C(=O)[C@@H](NC(=O)[C@H]2CCCN2C)C2CC2)OC(C)=O)n1
Response: > 25 µM

###

# System: UACC-257 melanoma
# Assay Overview: NCI tumour cell line growth inhibition, 48 h
Form field: TGI (one value per entry).

Below, 7 compounds whose answers are already recorded.
[
  {
    "Compound": "O=[N+]([O-])c1ccc2c(c1)C(c1ccccc1Cl)=Nc1c(n[nH]c1-c1cccnc1)N2",
    "TGI": "> 25 µM"
  },
  {
    "Compound": "Cc1[nH]nc2ncc(C(=O)N3CCC[C@H]3c3ccc(Cl)cc3)cc12",
    "TGI": "> 100 µM"
  },
  {
    "Compound": "CCOC(=O)N/N=C(\\CC)OCC",
    "TGI": "> 100 µM"
  },
  {
    "Compound": "Cc1ccc(Sc2ccccc2N)cc1",
    "TGI": "> 100 µM"
  },
  {
    "Compound": "COc1ccc(-c2cn(-c3cc(OC)c(OC)c(OC)c3)c(=O)[nH]2)cc1OC",
    "TGI": "> 100 µM"
  },
  {
    "Compound": "CCOC(=O)c1sc2nc1CSc1sc(=S)sc1SCc1nc(sc1C(=O)OCC)-c1nc(c(C(=O)OCC)s1)CSc1sc(=S)sc1SCc1nc-2sc1C(=O)OCC",
    "TGI": "> 10 µM"
  },
  {
    "Compound": "OCC1CCCC1O (stereo not drawn)",
    "TGI": "> 100 µM"
  }
]

Query: State its TGI for this compound: C/C(=N/O)c1sc(-c2nc(C)c(/C(C)=N\O)s2)nc1C
Response: > 100 µM

###

# System: UACC-62 melanoma
# Assay Overview: NCI tumour cell line growth inhibition, 48 h
Measured Property: TGI

Below, 10 molecules whose answers are already recorded.
[
  {
    "Molecule": "C=C1C(=O)O[C@H]2[C@H]1CC/C(CNC(=O)/C=C/c1ccccc1F)=C\\CC[C@@]1(C)O[C@@H]21",
    "TGI": "2.94 µM"
  },
  {
    "Molecule": "N#CCc1nnc(N)o1",
    "TGI": "> 100 µM"
  },
  {
    "Molecule": "CCOC(=O)C1SC(=Nc2ccc(Cl)cc2Cl)N=C1C (stereo not given)",
    "TGI": "> 100 µM"
  },
  {
    "Molecule": "COc1cc(CCNC(=O)OC(C)(C)C)c2c(c1OC)SSSSS2",
    "TGI": "15.5 µM"
  },
  {
    "Molecule": "Cn1c2cn[nH]c(=O)c2c2ccc3ccccc3c21",
    "TGI": "> 100 µM"
  },
  {
    "Molecule": "CN(C)c1ccc(/C=C(\\NC(=O)c2ccccc2)C(=O)Nc2cccc(C(=O)NCCCO)c2)cc1",
    "TGI": "> 100 µM"
  },
  {
    "Molecule": "COc1ccc2nc3cccc([N+](=O)[O-])c3c(NC(C)CN(C)C)c2c1 (stereo not given)",
    "TGI": "3.05 µM"
  },
  {
    "Molecule": "CC1(C)CCCCCCCCCC2CC2CCC(C)(C)C1=O (stereo not given)",
    "TGI": "> 100 µM"
  },
  {
    "Molecule": "O=C(O)c1cn(C2CC2)c2cc(N3CCN(Cc4c(O)ccc5ccccc45)CC3)c(F)cc2c1=O",
    "TGI": "> 100 µM"
  },
  {
    "Molecule": "CC(=O)Nc1cc2nc3n(c2cc1C)CCC3OC(C)=O (stereo not given)",
    "TGI": "> 100 µM"
  }
]

Let's switch to this molecule now.
Query: State its TGI for this molecule: COc1ccc(-c2cn(-c3cc(OC)c(OC)c(OC)c3)c(=O)[nH]2)cc1OC
Response: > 100 µM

###

Form field: TGI (one value per entry).
# Tested on: HCT-116 colon
# Assay Overview: NCI tumour cell line growth inhibition, 48 h

Below, 10 compounds whose answers are already recorded.
[
  {
    "Compound": "COc1cc(C2C(=O)C(Cl)N2Nc2nc(C)cc(=O)[nH]2)cc(OC)c1OC (centres undefined)",
    "Value Reported": "49.7 µM"
  },
  {
    "Compound": "COc1ccc(Cn2cc3c(c2-c2cc(OC)c(OC)c(OC)c2)CCc2c(CO)noc2-3)cc1",
    "Value Reported": "11.4 µM"
  },
  {
    "Compound": "NC(N)=NS(=O)(=O)c1ccc(NC(=O)c2cccc3c(N)c4ccccc4nc23)cc1",
    "Value Reported": "> 100 µM"
  },
  {
    "Compound": "Nc1ncn([C@H]2C[C@H](OP(=O)(O)OC[C@H]3O[C@@H](n4cnc5c(=O)[nH]c(N)nc54)C[C@@H]3O)[C@@H](CO)O2)c(=O)n1",
    "Value Reported": "> 100 µM"
  },
  {
    "Compound": "CC(C(=O)n1ccnc1)N1c2ccccc2Sc2ccccc21 (centres undefined)",
    "Value Reported": "> 100 µM"
  },
  {
    "Compound": "CC(=O)OCC1OC(n2ncc(=O)[nH]c2=O)C(OC(C)=O)C1OC(C)=O (centres undefined)",
    "Value Reported": "> 100 µM"
  },
  {
    "Compound": "CC1=C(C(=O)CC(=O)C(=O)Nc2ccc(C)c(C)c2)Sc2ccccc2N1",
    "Value Reported": "> 100 µM"
  },
  {
    "Compound": "CC(=O)OCCCC#CC#Cc1cccc(=O)o1",
    "Value Reported": "29.1 µM"
  },
  {
    "Compound": "O=c1[nH]c2cc([N+](=O)[O-])c(N/N=C/c3ccc(Cl)cc3Cl)c([N+](=O)[O-])c2[nH]1",
    "Value Reported": "> 100 µM"
  },
  {
    "Compound": "C=CC(=O)Nc1cccc(Oc2nc(Nc3ccc(N4CCN(C)CC4)cc3OC)ncc2Cl)c1",
    "Value Reported": "3.06 µM"
  }
]

Query: State its TGI for this compound: Cc1ccc(C(=O)Oc2ccc(/C=C3\CCC/C(=C\c4ccc(OC(=O)c5ccc(C)cc5)cc4)C3=O)cc2)cc1
Response: > 100 µM

Query: State its TGI for this compound: CCCCCCCCCCCCC(Br)C(C)=O (centres undefined)
Response: > 100 µM
